- tested_target: hemoglobin in stool samples (Homo sapiens, UniProt P68871+P69905)
- Sequence (P69905 2-142 limits assumed): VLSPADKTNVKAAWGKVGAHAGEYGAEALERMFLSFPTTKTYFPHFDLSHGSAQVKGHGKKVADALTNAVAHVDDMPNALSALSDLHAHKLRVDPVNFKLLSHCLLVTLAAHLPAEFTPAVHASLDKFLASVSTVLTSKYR
- Sequence (P68871 2-147 limits assumed): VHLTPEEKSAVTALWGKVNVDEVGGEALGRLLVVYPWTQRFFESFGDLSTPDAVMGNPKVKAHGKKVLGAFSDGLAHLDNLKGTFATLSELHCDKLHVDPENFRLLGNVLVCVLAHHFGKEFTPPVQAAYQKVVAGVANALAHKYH
- experiment_notes: 3-Day shipping simulation, hemoglobin % recovery by ELISA
- Design: from tissue; host or cells: stool samples
- condition_details: additive concentration 5 mM
assay_readout: Results

[Ca+2].[Cl-].[Cl-] [Calcium Chloride] ... Calcium cation shows
[Cl-].[Cl-].[Mg+2] [Magnesium Chloride] ... Magnesium Cation shows
O=S(=O)([O-])[O-].[Mg+2] [Magnesium Sulfate] ... Magnesium Cation shows
Oc1ccc(C=Cc2cc(O)cc(O)c2)cc1 ... No improvement
O=C1O[C@H]([C@@H](O)CO)C(O)=C1O ... No improvement
CCC(=O)[O-].CCC(=O)[O-].[Ca+2] [Calcium Propionate] ... Calcium cation shows

---

- tested_target: hemoglobin in stool samples (Homo sapiens, UniProt P68871+P69905)
- experiment_notes: Accelerated shipping simulation (35C 16 hour challenge), hemoglobin % recovery by ELISA;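 further: stool hemoglobin measured by ELISA before and after thermal-cycler shipping stress, stability given as percent of pre-stress hemoglobin recovered afterwards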
- Design: from tissue; host or cells: stool samples
- condition_details: additive concentration 5 uM
assay_readout: Results

O=C(O)[C@@H](COP(=O)(O)O)OP(=O)(O)O [Diphosphoglycerate (DPG)] ... No Improvement
C=CC1=C(C)c2cc3[n-]c(cc4nc(cc5[n-]c(cc1n2)c(C)c5C=C)C(C)=C4CCC(=O)O)c(CCC(=O)O)c3C.[Cl-].[Co+3] [Protoporphyrin IX Cobalt (Vendor 2)] ... Improvement in % Hb
OC[C@H]1O[C@H](OC[C@H]2O[C@H](O[C@]3(CO)O[C@H](CO)[C@@H](O)[C@@H]3O)[C@H](O)[C@@H](O)[C@@H]2O)[C@H](O)[C@@H](O)[C@H]1O [Raffinose] ... No Improvement
C=CC1=C(C)c2cc3[n-]c(cc4nc(cc5[n-]c(cc1n2)c(C)c5C=C)C(C)=C4CCC(=O)O)c(CCC(=O)O)c3C.[Cl-].[Ga+3] [Protoporphyrin IX Gallium] ... No Improvement
O=C(/C=C/C(=O)Oc1c(Br)cc(Br)cc1C(=O)O)Oc1c(Br)cc(Br)cc1C(=O)O [Bis(3,5-dibromosalilcyl)fumarate] ... No Improvement
C=Cc1c(C)c2cc3[nH]c(cc4nc(cc5nc(cc1[nH]2)C(C)=C5CCC(=O)[O-])C(CCC(=O)[O-])=C4C)c(C)c3C=C.[Co+2] [Protoporphyrin IX Co, Protoporphyrin IX Cobalt] ... Improvement in % Hb
C=CC1=C(C)c2cc3[n-]c(cc4nc(cc5[n-]c(cc1n2)c(C)c5C=C)C(C)=C4CCC(=O)O)c(CCC(=O)O)c3C.[Cl-].[Co+3] [Protoporphyrin IX Cobalt (Vendor 1)] ... Improvement in % Hb
C=CC1=C(C)c2cc3[n-]c(cc4nc(cc5[n-]c(cc1n2)c(C)c5C=C)C(C)=C4CCC(=O)O)c(CCC(=O)O)c3C.[Cl-].[Co+3] [Protoporphyrin IX Cobalt (Vendor 3)] ... Improvement in % Hb
O=C1O[C@H]([C@@H](O)CO)C(O)=C1O [Ascorbic Acid] ... No Improvement
C=CC1=C(C)c2cc3[n-]c(cc4nc(cc5[n-]c(cc1n2)c(C)c5C=C)C(C)=C4CCC(=O)O)c(CCC(=O)O)c3C.[Cl-].[Cr+3] [Protoporphyrin IX Chromium (Vendor 1)] ... Improvement in % Hb
O=C([O-])CC[C@@H](C(=O)[O-])N(CC(=O)[O-])CC(=O)[O-].[Na+].[Na+].[Na+].[Na+] ... No Improvement
C=CC1=C(C)c2cc3[n-]c(cc4nc(cc5[n-]c(cc1n2)c(C)c5C=C)C(C)=C4CCC(=O)O)c(CCC(=O)O)c3C.[Cl-].[Cr+3] [Protoporphyrin IX Chromium (Vendor 2)] ... Improvement in % Hb
N[C@@H](CS)C(=O)O [Cysteine] ... No Improvement

---

- tested_target: hemoglobin in stool samples (Homo sapiens, UniProt P68871+P69905)
- experiment_notes: 3-Day shipping simulation, hemoglobin % recovery by ELISA
- Parameters: from tissue; host or cells: stool samples
- condition_details: additive concentration 1 mM
Where a name gives a salt, the structure may show the parent alone.
assay_readout: Results

O=c1cc(-c2ccccc2)oc2c(O)c(O)ccc12 [7,8 dihydroxyflavone] ... No improvement
[Cl][Fe]([Cl])[Cl] [Iron (3) Chloride] ... No Improvement
Cc1ncc(CO)c(CO)c1O [Vitamine B6 in HCl] ... No improvement
[Cl][Ni][Cl] [Nickel Chloride] ... No Improvement
[Cl-].[Cl-].[Zn+2] [Zinc Chloride] ... No Improvement
O=C1O[C@H]([C@@H](O)CO)C(O)=C1O [Ascorbic Acid] ... No improvement
[Cl][Cu][Cl] [Copper Chloride] ... No Improvement

---

- tested_target: hemoglobin in stool samples (Homo sapiens, UniProt P68871+P69905)
- experiment_notes: 3-Day shipping simulation, hemoglobin % recovery by ELISA
- Parameters: from tissue; host or cells: stool samples
- condition_details: additive concentration 40 mM
assay_readout: Results

[Ca+2].[Cl-].[Cl-] [Calcium Chloride] ... Calcium cation shows
[Cl-].[Cl-].[Mg+2] [Magnesium Chloride] ... Magnesium Cation shows
CCC(=O)[O-].CCC(=O)[O-].[Ca+2] [Calcium Propionate] ... Calcium cation shows
O=S(=O)([O-])[O-].[Mg+2] [Magnesium Sulfate] ... Magnesium Cation shows

---

- tested_target: hemoglobin in stool samples (Homo sapiens, UniProt P68871+P69905)
- experiment_notes: 3-Day shipping simulation, hemoglobin % recovery by ELISA
- Set-up: from tissue; host or cells: stool samples
- condition_details: additive concentration 50 mM
assay_readout: Results

O=S(=O)([O-])[O-].[Mg+2] [Magnesium Sulfate] ... Magnesium Cation shows
[Ca+2].[Cl-].[Cl-] [Calcium Chloride] ... Calcium cation shows
CCC(=O)[O-].CCC(=O)[O-].[Ca+2] [Calcium Propionate] ... Calcium cation shows
O=C(NCO)N(CO)C1(CO)C(=O)NC(=O)N1CO (stereo not shown) [Diazolidinyl Urea] ... No Improvement
O=C([O-])CNCO.[Na+] [Soduim hyrdoxylmethyl glycinate] ... No Improvement
[Cl-].[Cl-].[Mg+2] [Magnesium Chloride] ... Magnesium Cation shows

---

- tested_target: hemoglobin in stool samples (Homo sapiens, UniProt P68871+P69905)
- experiment_notes: 3-Day shipping simulation, hemoglobin % recovery by ELISA;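 further: stool samples put through shipping stress in a thermal cycler, hemoglobin quantified by ELISA before and after, stability given as post-stress % of the pre-stress level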
- Parameters: from tissue; host or cells: stool samples
- condition_details: additive concentration 10 mM
assay_readout: Results

[Cl][Fe]([Cl])[Cl] [Iron (3) Chloride] ... No Improvement
[Ca+2].[Cl-].[Cl-] [Calcium Chloride] ... Calcium cation shows
[Cl][Ni][Cl] [Nickel Chloride] ... No Improvement
CCC(=O)[O-].CCC(=O)[O-].[Ca+2] [Calcium Propionate] ... Calcium cation shows
[Cl-].[Cl-].[Mg+2] [Magnesium Chloride] ... Magnesium Cation shows
[Cl-].[Cl-].[Zn+2] [Zinc Chloride] ... No Improvement
O=C([O-])CNCO.[Na+] [Soduim hyrdoxylmethyl glycinate] ... No Improvement
O=C(NCO)N(CO)C1(CO)C(=O)NC(=O)N1CO (stereo not shown) ... No Improvement
[Cl][Cu][Cl] [Copper Chloride] ... No Improvement
O=S(=O)([O-])[O-].[Mg+2] [Magnesium Sulfate] ... Magnesium Cation shows

---

- tested_target: Hb (Homo sapiens, UniProt P68871+P69905)
- Construct: To assess the stability of hemoglobin in stool samples, samples were exposed to simulated shipping stress conditions; from tissue; host or cells: stool samples
- Sequence (P69905 2-142 limits assumed): as the sequence (P69905 2-142 limits assumed) above
- Sequence (P68871 2-147 limits assumed): as the sequence (P68871 2-147 limits assumed) above
- experiment_notes: Appendix B additive screen, % Hb Recovery
assay_readout: Results

O.O.[Ca+2].[Cl-].[Cl-] [Calcium Chloride (dihydrate)] ... Calcium cation shows
O=C([O-])O.[Na+] [Sodium Bicarbonate] ... No Improvement
CC(=O)[O-].[Na+] [Sodium Acetate] ... No Improvement
NCC(=O)O ... No Improvement
O=C([O-])[O-].[Na+].[Na+] [Sodium Carbonate] ... No Improvement
O=S([O-])O.[Na+] [Sodium Bisulfite] ... No Improvement
[Ca+2].[Cl-].[Cl-] [Calcium Chloride] ... Calcium cation shows
[Cl-].[Li+] [Lithium Chloride] ... No Improvement
[Br-].[Na+] [Sodium Bromide] ... No Improvement
[Cl][Fe][Cl] [Iron (2) Chloride] ... No Improvement
C=CC1=C(C)c2cc3[n-]c(cc4nc(cc5[n-]c(cc1n2)c(C)c5C=C)C(C)=C4CCC(=O)O)c(CCC(=O)O)c3C.[Zn+2] ... No Improvement

---

- tested_target: Hb (Homo sapiens, UniProt P68871+P69905)
- Construct: To assess the stability of hemoglobin in stool samples, samples were exposed to simulated shipping stress conditions; from tissue; host or cells: stool samples
- experiment_notes: Appendix B additive screen, % Hb Recovery
assay_readout: Results

CC(=O)O.N [Ammonium Acetate] ... No Improvement
[O-][Cl+3]([O-])([O-])O [Sodium Perchlorate] ... No Improvement
C[N+](C)(C)[O-] [Trimethylamine N-oxide (TMANO)] ... No Improvement
CC(=O)[O-].[K+] [Potassium Acetate] ... No Improvement
O=C([O-])c1ccccc1.[Na+] [Sodium Benzoate] ... No Improvement
OCCO [Ethylene Glycol] ... No Improvement
CCCCCCn1cc[n+](C)c1.[Cl-] [1-hexyl-3-methylimidazolium chloride] ... No Improvement
Cl.N [Ammonium Chloride] ... No Improvement
N.N.O=S(=O)(O)O [Ammonium Sulfate] ... No Improvement
O=P(O)(O)O [Sodium Phosphate] ... No Improvement
Cl.Cn1sccc1=O ... No Improvement
[Cl-].[K+] [Potassium Chloride] ... No Improvement
CCn1cc[n+](C)c1.[Cl-] [1-ethyl-3-methylimidazolium chloride] ... No Improvement
O=[N+]([O-])C1(Br)COCOC1 [5-bromo-5-nitro-1,3-dioxane] ... No Improvement
N.N.O=C(O)C(=O)O [Ammonium Oxalate] ... No Improvement
